Value source: PubChem BioAssay (NCI)

# Test system: OVCAR-8 ovarian
# test summary: NCI tumour cell line growth inhibition, 48 h
value type: TGI

The cases that follow already have their TGI on record.
• O=c1[nH]cc(F)c(=O)n1C1OC(CO)C(O)C1O (configuration not stated) = > 100 µM
• COC(=O)c1cc2c(cc1Cl)SC1=NN(C)C(N(C)C)N1S2(=O)=O (configuration not stated) = > 100 µM
• CC12CCC(=O)N1c1ccc([N+](=O)[O-])cc1N2 (configuration not stated) = > 100 µM
• CSC(=S)Nc1cccc(C)n1 = > 100 µM
• Cc1ccc(C)c(N2C(=O)C(=O)C(c3nc4ccccc4s3)/C(=N/NC(=O)NN)C2=O)c1 (configuration not stated) = > 100 µM

Could I get TGI for every one of these entries?
1. N#CCCN1C/C(=C/c2ccc(Cl)cc2)C(=O)/C(=C/c2ccc(Cl)cc2)C1
2. CCOC(=O)c1c(C)n(-c2ccc(Cl)cc2)c2c1cc(O)c1[nH]c3c(c12)CCCC3
3. CN(CCNCc1ccccn1)CCNCc1ccccn1
4. CC1(C)CNCC(C)(OCc2ccccc2)C(=O)NC(C)(C)CNCC(C)(OCc2ccccc2)C(=O)N1 (configuration not stated)
5. CC1(C)CC(=O)C(/C(=N/NC(=S)NN)C(=O)Nc2nc3ccc([N+](=O)[O-])cc3s2)C(=O)C1

Result string:
["11.6 µM", "> 100 µM", "7.62 µM", "> 10 µM", "> 100 µM"]

Could I get TGI for every one of these entries?
1. COC1=C(OC)C(=O)C(SC/C=C(\C)CCCC(C)CCCC(C)CCCC(C)C)=CC1=O (configuration not stated)
2. CC(=O)OCCOCNC(=S)N/N=C/c1cc(Br)cs1
3. CCOC(=O)c1nc2cc(C(F)(F)F)ccc2nc1Nc1ccc(OC)cc1
4. Cc1ccc(-c2nc([P+](c3ccccc3)(c3ccccc3)c3ccccc3)c(S(=O)(=O)c3ccc(C)cc3)o2)cc1
5. COc1ccc(-c2cc(C(=O)Nc3ccc(C)c(C)c3)nc(NC#N)n2)cc1
6. CCOC(=O)CNC(=O)C(CSC(=O)N(O)c1ccc(Cl)cc1)NC(=O)CCC(N)C(=O)OCC (configuration not stated)

Result string:
> 100 µM
> 100 µM
> 100 µM
4.17 µM
> 100 µM
> 50 µM

----------
# Tested on: SN12C renal
# test summary: NCI tumour cell line growth inhibition, 48 h; in the data active = GI50 below about 0.43 µM; inactive = the rest
Your response should consist of one outcome taken from true (1) (active), false (0) (inactive)

• O=[N+]([O-])c1ccc(N2CCOCC2)c2c1no[n+]2[O-] = false (0)

Query string: Recorded call for `Cc1cc(C#Cc2ccc(C(C)(C)C)cc2)ccc1-n1c(/C=C/c2ccc(O)cc2O)nc2ccccc2c1=O` ?
Result string: false (0)

Query string: Recorded call for COC1C(O)C(CO)OC(OC2C(O)COC(OC3C(C)OC(OC4C(O[C@H]5CC[C@@]6(C)C(CC=C7[C@H]6CCC68C(=O)O[C@@](C)(CCCC(C)C)[C@H]6[C@@H](OC(C)=O)C[C@@]78C)C5(C)C)OCC(OS(=O)(=O)O)C4O)C(OC4OCC(O)C(O)C4O)C3O)C2O)C1O (stereo partly specified) ?
Result string: true (1)

Query string: Recorded call for Cc1cccc2c3c(sc12)C(c1ccc(Cl)cc1)C(C#N)=C(N)O3 (stereo unspecified) ?
Result string: false (0)

Query string: Recorded call for `CC(C)(Br)C(=O)C(Br)Br` ?
Result string: false (0)

Query string: Recorded call for `N#CCN1CCn2c1nsc2=S` ?
Result string: false (0)

Query string: Recorded call for `CN(CCNCc1ccccn1)CCNCc1ccccn1` ?
Result string: false (0)

Query string: Recorded call for `Oc1c(I)cc(I)c2cccnc12` ?
Result string: false (0)

Query string: Recorded call for `COc1ccc(/C=C(\C#N)n2nnc3c(F)cccc32)cc1` ?
Result string: false (0)

Query string: Recorded call for `NS(=O)(=O)c1ccc(-c2cc3ccncc3cc2OCc2ccccc2)cc1` ?
Result string: false (0)

Query string: Recorded call for `COc1cc2nc(-c3cc(F)ccc3O)nc(N[C@@H]3CNC[C@H]3C(C)(C)O)c2cc1OC` ?
Result string: false (0)

----------
# System: OVCAR-4 ovarian
# test summary: NCI tumour cell line growth inhibition, 48 h
Exercise: state measured TGI for each of the compounds provided.

* Cc1ccc(/C(C#N)=C/c2cccc([N+](=O)[O-])c2)cc1 | > 100 µM
* CCN(CC)c1ccc2c(c1)Oc1ccc(N(CC)CC)cc1C21Oc2ccccc2-c2c1c1ccccc1n2CC (centres undefined) | > 100 µM
* Nc1ncnc2oc(C3OC(COC(=O)c4ccccc4)C(OC(=O)c4ccccc4)C3OC(=O)c3ccccc3)nc12 (centres undefined) | > 100 µM

Could I get TGI for every one of these entries?
1. O=[N+]([O-])c1cccc2nc3ccccc3c(NCCCNc3c4ccccc4nc4cccc([N+](=O)[O-])c34)c12
2. C[N+](C)(C)c1ncnc2c1ncn2C1CC(O)C(CO)O1 (centres undefined)

Result string:
["0.302 µM", "> 100 µM"]

Could I get TGI for every one of these entries?
1. CN(C)C(=NCc1ccccc1)NC#N
2. CC1(C)CC(=O)C2=C(C1)OC(N)=C(c1nc(-c3ccccc3)cs1)C2c1ccc(Br)cc1 (centres undefined)
3. COC(=O)[C@@]1(C(C)CC(=O)O)CCCCC1=O (some centres undefined)

Result string:
["> 100 µM", "121 µg/mL", "> 100 µM"]

Could I get TGI for every one of these entries?
1. CN(CCNCc1ccccn1)CCNCc1ccccn1
2. CC1(C)OCC([C@H]2O[C@@H](CC(=S)NCCCCCCCCCCCCNC(=S)C[C@H]3O[C@@H](C4COC(C)(C)O4)[C@H]4OC(C)(C)O[C@H]43)[C@H]3OC(C)(C)O[C@H]32)O1 (some centres undefined)
3. O=C(NC1CCN(Cc2ccccc2)CC1)c1ccc(I)cc1
4. COc1ccc(OC)c(CNc2ccc(C(=O)O)cc2)c1
5. O=CNCNCCO
6. Cc1ccc(C)c(N2C(=O)C(=O)C(c3nc4ccccc4s3)/C(=N/NC(=O)NN)C2=O)c1 (centres undefined)

Result string:
["8.99 µM", "> 100 µM", "> 100 µM", "> 100 µM", "> 100 µM", "> 100 µM"]

----------
# Tested on: MCF7 breast
# test summary: NCI tumour cell line growth inhibition, 48 h
value type: TGI

Could I get TGI for every one of these entries?
1. O=C(Nc1cccc(-n2cc(-c3ccncc3)c(-c3cc(O)cc(Cl)c3)n2)c1)c1cc(C(F)(F)F)cc(C(F)(F)F)c1
2. COc1ccc(N2C(=O)/C(=C\c3cc(OC)c(OC)c(OC)c3)SC2c2ccccc2)cc1 (centres undefined)
3. COc1ccc(/C=N/n2c(C)n[nH]c2=O)c(OC)c1
4. COc1cc2c(cc1OCCCCN1CCN(C(=S)SCCC(C#N)(c3ccccc3)c3ccccc3)CC1)N=C[C@@H]1CCCN1C2=O

Result string:
1: > 100 µM; 2: > 100 µM; 3: > 100 µM; 4: 2.23 µM

----------
# System: HCT-116 colon
# test summary: NCI tumour cell line growth inhibition, 48 h
Where a SMILES comes first, the peptide text is derived from it. The star is where a group is joined. Palmitoyl = CCCCCCCCCCCCCCCC(=O)*
value type: GI50

The cases that follow already have their GI50 on record.
• Cc1cc(C)nc(SC2=C(Nc3cc(Cl)ccc3O)C(=O)N(Cc3ccccc3)C2=O)n1 = 31400 nM
• CCN(CC)CCCCCCNc1cc(OC)cc2cccnc12 = 1930 nM
• COC1=C(OC)C(=O)C(SC/C=C(\C)CCCC(C)CCCC(C)CCCC(C)C)=CC1=O (stereo not given) = 574 nM
• CC1(C)CC(=O)C2=C(C1)OC(N)=C(c1nc(-c3ccccc3)cs1)C2c1ccc(Br)cc1 (stereo not given) = 55.7 µg/mL
• CCCCCCCCCCCCCCCC(=O)N1CCCC1C(=O)NCC(=O)NC(Cc1ccccc1)C(=O)NC(C)C(=O)NC(CO)C(=O)NC(Cc1ccc(O)cc1)C(=O)NC(CCCCN)C(=O)NC(CC(C)C)C(=O)NC(CCCN=C(N)N)C(=O)N1CCCC1C(=O)NCC(N)=O (stereo not given) (Palmitoyl-PGFASYKLRPG-NH2; configuration not given here) = 12100 nM
• O=C(/C=C/c1cccc(O)c1)c1cccc(-n2cc(-c3ccccc3)[nH]c2=O)c1 = 2220 nM
• Cc1ccc(-c2nc([P+](c3ccccc3)(c3ccccc3)c3ccccc3)c(S(=O)(=O)c3ccc(C)cc3)o2)cc1 = 1370 nM
• COc1ncnc(NS(=O)(=O)c2ccc(N=C3C(=O)N(CN4CCN(c5c(F)cc6c(=O)c(C(=O)O)cn(C7CC7)c6c5OC)CC4C)c4ccc(Br)cc43)cc2)c1OC (stereo not given) = 9960 nM
• Oc1ccc(C(c2ccc(O)cc2)c2ccc(Br)cn2)cc1 = 517 nM

For the next question, use this molecule.
Briefly, GI50 measured for `N#CCN1CCn2c1nsc2=S` : > 100000 nM
